# Tested on: p27 levels in LNCaP-S14 cells
# methodNotes: p27 immunofluorescence screening assay in LNCaP-S14 cells
# recordedConditions: IF assay, 16 hours, SMIP concentration 40 (maximum dose)
Label key: MET means accumulation of p27, fold-induction normalized to DMSO under 3 fold; NOT MET means accumulation of p27, fold-induction normalized to DMSO of 3 fold or more.

Answered examples (4):
- CCC(=O)N(Cc1cccc(Cl)c1)c1ccc2[nH]c(C(C)(C)C)cc2c1: NOT MET
- COc1ccc(S(=O)(=O)Nc2cccc3cc(C(=O)NCc4ccc(Cl)cc4)[nH]c23)cc1: MET
- COc1ccc(S(=O)(=O)N(Cc2ccc(Cl)cc2)Cc2ccc3cc[nH]c3c2)cc1: NOT MET
- COc1ccc(S(=O)(=O)Nc2ccc3[nH]c(C(C)(C)C)cc3c2)cc1: NOT MET

Please state whether accumulation of p27, fold-induction normalized to DMSO is below 3 fold for `O=C(Nc1ccccc1)Nc1ccc(SCc2nc(OCC(F)(F)F)cc(OCC(F)(F)F)n2)cc1`
MET
